target.system: Recombinant human his-tagged IGF 1R extracellular domain protein (human) (UniProt P08069)
experimental.protocol: SPR, captured IgG, IGF-1R ECD-his analyte, dissociation pH 7.4
measurement.type: Kd
Include the unit after the number when you answer.

- binder: "VRDN-02512 (antibody, V domains shown) VH: EVQLVQSGGGLVKPGGSLRLSCAASGFTFSSFAMHWVRQAPGKGLEWISVIDTHGATYYADSVKGRFTISRDNAKNSLYLQMNSLRAEDTAVYYCARLGNFYYGMDVWGQGTTVTVSS VL: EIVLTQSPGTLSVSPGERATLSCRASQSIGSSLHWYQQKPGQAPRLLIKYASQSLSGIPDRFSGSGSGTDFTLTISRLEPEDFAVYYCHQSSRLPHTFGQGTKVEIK"
  Kd: "6.08 nM"

Exam item: Check the records and state Kd for VRDN-02524 (antibody, V domains shown) VH: EVQLVQSGGGLVKPGGSLRLSCAASGFTFSSFAMHWVRQAPGKGLEWISVIDTRGATYYADSVKGRFTISRDNAKNSLYLQMNSLRAEDTAVYYCARLGNFYYHMDVWGQGTTVTVSS VL: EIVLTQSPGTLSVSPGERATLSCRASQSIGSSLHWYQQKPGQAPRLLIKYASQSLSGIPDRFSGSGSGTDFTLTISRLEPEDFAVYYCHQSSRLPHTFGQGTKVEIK
Marked response: 0.00752 nM
